Target: T1, Human CD98 ECD with N-terminal His-tag (human, UniProt P08195 105-529)
T1 construct: The entry includes the linker and the polyhistidine tag; also called huCD98 ECD
T1 sequence: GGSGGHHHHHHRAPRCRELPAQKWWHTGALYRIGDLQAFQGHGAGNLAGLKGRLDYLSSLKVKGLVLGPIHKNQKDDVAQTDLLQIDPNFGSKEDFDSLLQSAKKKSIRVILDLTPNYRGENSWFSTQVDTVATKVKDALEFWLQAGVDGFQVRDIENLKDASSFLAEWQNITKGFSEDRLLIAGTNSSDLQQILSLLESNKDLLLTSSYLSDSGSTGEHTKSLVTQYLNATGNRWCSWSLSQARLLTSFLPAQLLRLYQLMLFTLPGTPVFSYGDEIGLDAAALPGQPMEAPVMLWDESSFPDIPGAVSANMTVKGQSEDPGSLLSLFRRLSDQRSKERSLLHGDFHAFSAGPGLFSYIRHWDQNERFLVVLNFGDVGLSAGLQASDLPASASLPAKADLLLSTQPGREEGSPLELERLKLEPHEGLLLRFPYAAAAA
Assay: SPR (Biacore), recombinant CD98 ECD
READOUT KIND: koff (s⁻¹)
# unit: s⁻¹ | format: bare number

Given the binder huAb106 (antibody, V domains shown, Framework re-engineered humanized clone (parent huAb15v1), expressed as full-length IgG) VH: EVQLVQSGAEVKKPGASVKVSCKASGFTFSDYTMAWVRQAPGQGLEWVATIIYSGRGTYYRDAVKGRFTITRDNSTSTLYLELSSLRSEDTAVYYCARQSDHTYYYWGYFDYWGQGTMVTVSS VL: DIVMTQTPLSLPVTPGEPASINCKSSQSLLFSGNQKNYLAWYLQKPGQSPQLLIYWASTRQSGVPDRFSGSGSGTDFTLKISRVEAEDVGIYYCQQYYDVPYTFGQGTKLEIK , what is its reported koff? 2.2e-05

Same thing, different binder: huAb104 (antibody, human IgG1, kappa, L234A L235A, V domains shown, Framework re-engineered humanized clone (parent huAb3v2); also called CL-huAb104) VH: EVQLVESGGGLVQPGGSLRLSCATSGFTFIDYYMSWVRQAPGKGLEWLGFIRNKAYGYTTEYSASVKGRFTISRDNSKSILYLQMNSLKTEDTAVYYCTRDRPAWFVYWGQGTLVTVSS VL: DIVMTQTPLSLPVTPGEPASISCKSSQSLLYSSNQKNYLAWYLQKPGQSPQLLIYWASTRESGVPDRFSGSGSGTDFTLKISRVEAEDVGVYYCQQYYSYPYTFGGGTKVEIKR 0.00091

Same thing, different binder: huAb101 (antibody, V domains shown, Framework re-engineered humanized clone (parent huAb3v1), expressed as full-length IgG) VH: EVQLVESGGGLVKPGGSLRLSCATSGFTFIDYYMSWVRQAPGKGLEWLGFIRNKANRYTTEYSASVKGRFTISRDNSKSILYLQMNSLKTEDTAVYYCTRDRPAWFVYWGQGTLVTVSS VL: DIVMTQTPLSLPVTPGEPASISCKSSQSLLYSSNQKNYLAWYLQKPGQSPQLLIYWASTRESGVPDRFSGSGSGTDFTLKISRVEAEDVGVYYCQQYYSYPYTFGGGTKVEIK 0.0018

Same thing, different binder: huAb103 (antibody, V domains shown, Framework re-engineered humanized clone (parent huAb3v2), expressed as full-length IgG; also called haAb103) VH: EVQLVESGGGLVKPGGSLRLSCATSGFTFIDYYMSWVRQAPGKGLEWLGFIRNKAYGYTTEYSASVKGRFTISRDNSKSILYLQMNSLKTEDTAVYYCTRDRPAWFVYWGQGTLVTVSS VL: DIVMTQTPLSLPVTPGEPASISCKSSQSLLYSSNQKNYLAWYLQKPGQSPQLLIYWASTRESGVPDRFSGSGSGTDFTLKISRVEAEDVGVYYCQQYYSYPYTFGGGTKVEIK 0.00059

Just for reference, patent US20200147235A1 is where these values come from.
